IC50 values for UniProt Q06187, compiled from several publications.

Check out these entries, answers already filled in.
compound: CCC[C@@H](Nc1ccccc1)C(=O)N[C@@H]1CCCN(c2ncnc3[nH]ccc23)C1
readout value: 100 to 999 nM
//
compound: C=CC(=O)Nc1cccc(Oc2nc(Nc3ccc(C4=NCCCN4)cc3)nc3ccsc23)c1
readout value: ≤ 50 nM
//
compound: O=C(CNc1cc(F)cc(Cl)c1)N[C@@H]1CCCN(c2ncnc3[nH]ncc23)C1
readout value: < 100 nM

Supply IC50 measured with UniProt Q06187 for CC1C2C(CCN1C(=O)CNc1cc(Cl)cc(Cl)c1)CCN2c1ncnc2[nH]ccc12 (stereo not shown) .
< 100 nM

----------
pIC50: −log10 of the molar value.
Published pIC50 for BTK (Homo sapiens, UniProt Q06187), assembled from different documents, is shown next.

// fetch pIC50; item: CC#CC(=O)N1CC2CC1C(n1nc(-c3ccc(C(=O)Nc4ccccc4)cc3)c3c(N)ncnc31)C2 (stereo not shown) ; system: BTK (Homo sapiens, UniProt Q06187)
Sequence (Q06187 whole entry): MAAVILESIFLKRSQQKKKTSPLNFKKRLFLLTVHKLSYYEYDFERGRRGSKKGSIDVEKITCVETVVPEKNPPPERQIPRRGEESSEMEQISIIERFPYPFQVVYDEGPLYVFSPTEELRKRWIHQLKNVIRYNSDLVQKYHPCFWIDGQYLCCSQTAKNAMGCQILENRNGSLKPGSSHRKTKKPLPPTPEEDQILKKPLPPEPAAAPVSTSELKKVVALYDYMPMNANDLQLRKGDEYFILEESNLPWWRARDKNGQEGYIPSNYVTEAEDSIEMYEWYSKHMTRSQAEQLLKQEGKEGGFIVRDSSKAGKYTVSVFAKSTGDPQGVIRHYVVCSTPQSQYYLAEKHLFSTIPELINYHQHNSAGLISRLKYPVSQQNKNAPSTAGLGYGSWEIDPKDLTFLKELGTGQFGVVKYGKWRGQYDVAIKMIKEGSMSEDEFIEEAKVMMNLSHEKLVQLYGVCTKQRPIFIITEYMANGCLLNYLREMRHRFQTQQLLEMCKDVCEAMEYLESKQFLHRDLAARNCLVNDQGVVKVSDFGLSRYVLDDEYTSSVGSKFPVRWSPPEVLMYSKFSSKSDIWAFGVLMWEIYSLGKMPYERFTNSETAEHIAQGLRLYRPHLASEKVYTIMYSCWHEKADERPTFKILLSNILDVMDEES
< 6.00

Name the recorded pIC50 of C=CC(=O)N1CC[C@]2(C1)C[C@H](n1c(NC(=O)c3ccc(-c4cnco4)s3)nc3cc(F)ccc31)C2 , assay system BTK (Homo sapiens, UniProt Q06187).
8.96

Provide pIC50, system BTK (Homo sapiens, UniProt Q06187), entry C=CC(=O)Nc1cccc(Oc2ncnc3[nH]c(-c4ccc(CN5CCC(F)(F)CC5)cc4)cc23)c1
> 7.00

Determine reported pIC50 for Cc1cc(-c2cc(Nc3cc4n(n3)CC(=O)N(C)C4)ncn2)ccc1CNC(=O)c1cnc(C(C)(C)C)s1 ; test system: BTK (Homo sapiens, UniProt Q06187).
> 8.00

Under BTK (Homo sapiens, UniProt Q06187): report pIC50 of Cc1cc(Cl)ccc1NCC(=O)N[C@@H]1CCCN(c2ncnc3[nH]ccc23)C1 .
6.00 to 7.00

GET pIC50 | system: BTK (Homo sapiens, UniProt Q06187) | item: Cc1cc(-c2ccnc(Nc3cnn(C)c3)n2)ccc1CNC(=O)c1cnn(C)c1
7.00 to 8.00

State measured pIC50 of the compound C=CC(=O)N(C)c1cccc(Nc2cc(Nc3ccc(F)c(Cl)c3)ncn2)c1 with BTK (Homo sapiens, UniProt Q06187).
7.00 to 8.00

For BTK (Homo sapiens, UniProt Q06187), give the measured pIC50 of the entry C=CC(=O)N1CC(Nc2cncc(-c3cnc(Oc4cccc(C(F)(F)F)c4)nc3)n2)C1
7.52

----------
Field: pIC50. System: BTK (Homo sapiens, UniProt Q06187). Provenance: assorted publications.
pIC50: −log10 of the molar value.
outcome measure: pIC50

molecule: CC#CC(=O)N(C)[C@@H](C)c1nc(-c2ccc(C(=O)Nc3ccccn3)c(OC)c2)c2c(N)nccn12
system: BTK (Homo sapiens, UniProt Q06187)
pIC50: 8.70
--
molecule: CC(C)(C)c1ccc2c(=O)n(-c3cccc(-n4cc(C(N)=O)c(Nc5cnccn5)n4)c3CO)ncc2c1
system: BTK (Homo sapiens, UniProt Q06187)
pIC50: 9.08

I = C=CC(=O)NN1CCCC(c2nc(-c3ccc(Oc4ccccc4)cc3)c3c(N)nccn23)C1 (stereo not shown)
II = CC#CC(=O)N1CCC[C@H](Nc2nc(CN3CCOCC3)cc(Nc3ncc(C)s3)n2)C1
III = C=CC(=O)N1CC[C@H](Nc2nc(CN3CCOCC3)cc(Nc3ncc(C(=O)Nc4c(C)cccc4Cl)s3)n2)C1
Put the entries in order of pIC50, starting with the largest number. Write the labels out in the order the request specifies.
III, I, II
(III: 8.79, I: 8.29, II: 7.44)

A = C=CC(=O)N1CC[C@]2(C1)C[C@H](n1c(NC(=O)c3ccc(-c4ccc(NC)nc4)s3)nc3ccccc31)C2
B = C=CC(=O)Nc1cccc(-c2cc(C(=O)NC(C)C(C)(C)C)cc(Nc3cc(C)[nH]n3)n2)c1 (stereo not shown)
C = CC#CC(=O)N1CCC2CC21c1nc(-c2ccc(C(=O)Nc3cc(C(F)(F)F)ccn3)cc2)c2c(N)nccn12 (stereo not shown)
D = C=CC(=O)N1CCCC(n2nc(-c3ccc(C(=O)Nc4ccccn4)cc3C)c3c(N)ncnc32)C1 (stereo not shown)
E = Cc1nc(Nc2ncc(C(=O)Nc3c(C)cc(F)cc3Cl)s2)cc(N2CCN(CCO)CC2)n1
Arrange the 5 molecules from largest to smallest pIC50. Output spec: labels arranged per the requested ranking.
E, D, A, B, C

----------
// molecules with pIC50 on BTK (Homo sapiens), multi-source literature
pIC50: −log10 of the molar value.

The following molecules have reported results that may help.
molecule: O=C(CNc1ccc(Cl)cc1Cl)N[C@@H]1CCCN(c2ncnc3[nH]ccc23)C1
outcome measure: pIC50
readout value: 6.00 to 7.00

molecule: CC(C)(C)c1csc(C(=O)NC2CCCc3cc(-c4ncnc5[nH]ncc45)ccc32)n1 (stereo in doubt)
outcome measure: pIC50
readout value: > 8.00

molecule: C/C=C(\C#N)C(=O)N1CC(n2cc(C(N)=O)c(-c3ccc(Oc4ccccc4)cc3)n2)C1
outcome measure: pIC50
readout value: > 6.30

molecule: O=C(c1ccc(Nc2nc(-c3cccc(N4CCc5cc(C6CC6)ccc5C4=O)c3CO)cn3ccnc23)cc1)N1CCOCC1
outcome measure: pIC50
readout value: 7.60

molecule: CC1CN(S(=O)(=O)c2ccccc2NCC(=O)N[C@@H]2CCCN(c3ncnc4[nH]ncc34)C2)CC(C)O1 (stereo partly drawn)
outcome measure: pIC50
readout value: 6.00 to 7.00

Consider now this further molecule.
Fill: pIC50 (BTK (Homo sapiens)) for this molecule CN(C/C=C/C(=O)N1CC[C@@H](n2c(C(=O)O)c(-c3ccc(Oc4ccccc4)cc3)c3c(N)ncnc32)C1)C1CC1
> 7.00

----------
Listed below are molecules with IC50 for BTK (Homo sapiens), each taken from published literature.

Here's what some known entries look like.
molecule: CN(C)C/C=C/C(=O)N1CCC[C@@H](n2c(F)c(-c3ccc(Oc4ccccc4)cc3)c3c(N)n[nH]c(=O)c32)C1
IC50: ≤ 0.01 µM
--
molecule: Cc1ccc2c(N)c(C(N)=O)nnc2c1-c1ccc2[nH]nc(C)c2c1
IC50: 0.1 µM

Param request: IC50 | system BTK (Homo sapiens) | item C=CC(=O)Nc1ccc(Nc2cc(Nc3ccc(Oc4ccccc4)cc3)ncn2)cc1
1 to 10 µM

For BTK (Homo sapiens), give the measured IC50 of the entry Cn1cc(-c2cnc3[nH]cc(C(=O)c4c(F)ccc(NS(=O)(=O)C5CC5)c4F)c3c2)cn1
≤ 10 µM

Answer with IC50 of Cn1cc(Nc2nccc(-c3ccc4c(c3)CCNCC4NC(=O)N3CC(OC(C)(C)C)C3)n2)cn1 (stereo not drawn) measured for BTK (Homo sapiens).
< 0.01 µM

----------
pIC50: −log10 of the molar value.
Recorded pIC50 for compounds tested on BTK (Homo sapiens, UniProt Q06187), drawn from a number of studies.

Sample answers from the record:
compound: O=C(CNc1ccccc1Cl)N1CCC[C@H](Nc2ncnc3[nH]ncc23)C1
pIC50: < 5.00
//
compound: CCOc1cc(C(=O)Nc2cc(C(F)(F)F)ccn2)ccc1-c1nc([C@]2(C)CC[C@H]3CN(C(C)C)CC(=O)N3C2)n2ccnc(N)c12
pIC50: 9.38
//
compound: C[C@H]1CN(c2nc(-c3cnn(C)c3)cn3nccc23)CC[C@@H]1CNC(=O)c1noc(C2(C)CC2)n1 (single isomer, unassigned)
pIC50: 8.00 to 9.00
//
compound: Cc1cc(-c2nc(C(=O)Nc3cn4cc(C(C)(C)O)nc4cc3-c3ccccc3)co2)ccn1
pIC50: 7.70
//
compound: CN(C)C/C=C/C(=O)N1CCN(c2ccc(C(N)=O)c(-c3ccc(Oc4ccccc4)cc3)n2)CC1
pIC50: > 6.30

Report its pIC50 with BTK (Homo sapiens, UniProt Q06187) as the test system: O=C(O)CN(c1ncnc2[nH]ccc12)[C@@H]1CCCN(C(=O)CNc2cc(Cl)cc(Cl)c2)C1
5.00 to 6.00

// fetch pIC50 for C[C@@H]1CN(c2nc(-c3cnn(C)c3)cn3nccc23)CC[C@H]1CNC(=O)c1noc(C2(C)CC2)n1 (single isomer, unassigned) ; system: BTK (Homo sapiens, UniProt Q06187)
6.00 to 8.00

Look up BTK (Homo sapiens, UniProt Q06187) data: pIC50 of O=C(CNc1ccccc1S(=O)(=O)N1CC2CCCC2C1)N[C@@H]1CCCN(c2ncnc3[nH]ncc23)C1 (some centres unmarked) , then report it.
> 7.00

Look up and report pIC50, with BTK (Homo sapiens, UniProt Q06187) as system, for Cc1cc(-c2ccnc(Nc3cnn(C(C)C)c3)n2)ccc1CNC(=O)N1CC(OC(C)C)C1
> 8.00

Report its pIC50 with BTK (Homo sapiens, UniProt Q06187) as the test system: CN(C(=O)/C=C/CN(C)C1CC1)c1cccc(-n2c(=O)n(-c3ccc(NC(=O)c4ccccc4)cc3)c3c(N)ncnc32)c1
> 7.00

Report value only: pIC50, BTK (Homo sapiens, UniProt Q06187), C=CC(=O)N1CCC[C@H]1Cn1nc(-c2ccc(Oc3ccccc3)cc2)c2cncnc21
> 7.00

Look up and report pIC50, with BTK (Homo sapiens, UniProt Q06187) as system, for O=C(N[C@@H]1CCCN(c2ncnc3[nH]ccc23)C1)[C@H](Nc1ccccc1)C1CCCCC1
5.00 to 6.00

Write down the reported pIC50 (system: BTK (Homo sapiens, UniProt Q06187)) of Cc1cc(-c2ccnc(Nc3cnn(C(C)(C)C(=O)NCC(F)(F)F)c3)n2)ccc1CNC(=O)N1CC(OC(C)C)C1
> 8.00

Return reported pIC50 for target or system BTK (Homo sapiens, UniProt Q06187), item Cc1cc(-c2ccnc(Nc3cnn(C[C@H]4CNCCO4)c3)n2)ccc1CNC(=O)c1cnc(C(C)(C)C)s1 .
> 8.00
